# subject.of.test: Aurora kinase A (AURKA) (Homo sapiens)
# Construct: endogenous in cells; host or cells: HeLa LgBit (AURKA-HiBit KI), CRISPR/Cas9 knock-in at the endogenous AURKA locus
# Sequence (O14965 whole entry): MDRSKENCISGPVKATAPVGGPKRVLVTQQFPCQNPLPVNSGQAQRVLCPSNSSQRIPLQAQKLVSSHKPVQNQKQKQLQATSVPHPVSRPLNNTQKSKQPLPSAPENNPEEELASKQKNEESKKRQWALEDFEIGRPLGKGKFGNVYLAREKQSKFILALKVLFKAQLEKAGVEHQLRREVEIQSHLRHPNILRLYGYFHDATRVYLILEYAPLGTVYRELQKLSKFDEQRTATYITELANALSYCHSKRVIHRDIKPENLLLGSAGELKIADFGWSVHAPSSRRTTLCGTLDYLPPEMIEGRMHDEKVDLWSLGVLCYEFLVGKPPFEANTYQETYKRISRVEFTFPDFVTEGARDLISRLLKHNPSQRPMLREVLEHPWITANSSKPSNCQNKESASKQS
# assay: Luciferase assay for AURKA in HeLa LgBit (AURKA-HiBit KI) cell line
# Format: cell-based
# applied.conditions: 10 nM compound, HeLa LgBit (AURKA-HiBit KI) cells, measured after 12 hours

| molecule | luminescence value (Level) |
| --- | --- |
| O=C1CCC(Nc2ccc(N3CCN(CCC4CCN(NC(=O)c5ccc(Nc6ncc(F)c(Nc7ccc(C(=O)Nc8ccccc8Cl)cc7)n6)cc5)CC4)CC3)cc2)C(=O)N1 (centres unmarked) | A (A is <0.3) |
| CN(CC1CCN(c2ccc(C3CCC(=O)NC3=O)cc2F)CC1)[C@H]1CC[C@H](NC(=O)c2ccc(Nc3ncc(F)c(Nc4ccc(C(=O)Nc5ccccc5Cl)cc4)n3)cc2)CC1 (some centres unmarked) | A (A is <0.3) |
| COc1cc(N2CCN(CCC3CCN(NC(=O)c4ccc(Nc5ncc(F)c(Nc6ccc(C(=O)Nc7ccccc7Cl)cc6)n5)cc4)CC3)CC2)c(F)cc1NC1CCC(=O)NC1=O (centres unmarked) | A (A is <0.3) |
